# Assay system: AKT1 WT (Homo sapiens, UniProt P31749)
# Construct: expressed in transfected cells; host or cells: HEK293
# Sequence (P31749 whole entry): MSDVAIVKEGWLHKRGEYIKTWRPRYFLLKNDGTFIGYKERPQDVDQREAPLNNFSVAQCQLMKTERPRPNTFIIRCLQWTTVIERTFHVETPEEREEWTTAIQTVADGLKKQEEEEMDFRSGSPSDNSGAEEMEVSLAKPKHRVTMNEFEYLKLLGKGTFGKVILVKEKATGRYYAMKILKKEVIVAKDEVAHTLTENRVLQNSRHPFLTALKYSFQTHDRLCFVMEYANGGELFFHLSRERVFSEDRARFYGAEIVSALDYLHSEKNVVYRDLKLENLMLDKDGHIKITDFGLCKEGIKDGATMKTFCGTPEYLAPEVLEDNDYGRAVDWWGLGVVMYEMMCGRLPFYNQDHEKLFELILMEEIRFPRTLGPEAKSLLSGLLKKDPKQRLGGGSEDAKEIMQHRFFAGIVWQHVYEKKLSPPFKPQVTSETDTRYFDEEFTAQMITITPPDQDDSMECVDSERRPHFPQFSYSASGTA
# Assay summary: Live cell AKT1 WT target engagement by NanoBRET competitive probe displacement in HEK293 cells
# Type: binding
# Settings: NanoBRET live cell target engagement, HEK293 cells, 2 h at 37° C.; read-out: AKT1 WT IC50
pIC50: −log10 of the molar value.
Readout name: pIC50

Study these solved cases before continuing.
Compound	pIC50
COc1ccc(C(=O)N[C@H]2CCc3cc(-n4c(-c5cccnc5N)nc5ccc(-n6nccn6)nc54)ccc32)cn1 [Compound 371]	7.81
Nc1ncccc1-c1nc2ccc(-n3cccn3)nc2n1-c1ccc2c(c1)CC[C@@H]2NC1CCN(C(=O)C2CC2)CC1 [Compound 279]	7.34
Nc1ncccc1-c1nc2ccc(-n3cccn3)nc2n1-c1ccc2c(c1)CC[C@@H]2NCc1cccnc1 [Compound 141]	7.28

[1] Nc1ncccc1-c1nc2ccc(-n3cccn3)nc2n1-c1ccc2c(c1)CC[C@@H]2NC(=O)c1cc(O)c(O)cc1F [Compound 351]
[2] Nc1ncccc1-c1nc2ccc(-n3cccn3)nc2n1-c1ccc2c(c1)CC[C@@H]2N1CCCCC1 [Compound 342]
[3] Cn1ccc(C#Cc2ncccc2C(=O)N[C@H]2CCc3cc(-n4c(-c5cccnc5N)nc5ccc(-n6cccn6)nc54)ccc32)n1 [Compound 181]
[4] Nc1ncccc1-c1nc2ccc(-n3cccn3)nc2n1-c1ccc2c(c1)CC[C@@H]2NC(=O)Cc1ccncc1 [Compound 49]
input: Rank items: key pIC50, increasing. State the ranking by listing the labels in the requested order.
output: 4, 3, 2, 1
(4: 6.70, 3: 7.11, 2: 7.36, 1: 7.69)
